Record: compiled IC50 on Tyrosine-protein kinase receptor UFO (Homo sapiens, UniProt P30530) from multiple reports.
- TESTED ON: Tyrosine-protein kinase receptor UFO (Homo sapiens, UniProt P30530)
- Sequence (P30530 whole entry): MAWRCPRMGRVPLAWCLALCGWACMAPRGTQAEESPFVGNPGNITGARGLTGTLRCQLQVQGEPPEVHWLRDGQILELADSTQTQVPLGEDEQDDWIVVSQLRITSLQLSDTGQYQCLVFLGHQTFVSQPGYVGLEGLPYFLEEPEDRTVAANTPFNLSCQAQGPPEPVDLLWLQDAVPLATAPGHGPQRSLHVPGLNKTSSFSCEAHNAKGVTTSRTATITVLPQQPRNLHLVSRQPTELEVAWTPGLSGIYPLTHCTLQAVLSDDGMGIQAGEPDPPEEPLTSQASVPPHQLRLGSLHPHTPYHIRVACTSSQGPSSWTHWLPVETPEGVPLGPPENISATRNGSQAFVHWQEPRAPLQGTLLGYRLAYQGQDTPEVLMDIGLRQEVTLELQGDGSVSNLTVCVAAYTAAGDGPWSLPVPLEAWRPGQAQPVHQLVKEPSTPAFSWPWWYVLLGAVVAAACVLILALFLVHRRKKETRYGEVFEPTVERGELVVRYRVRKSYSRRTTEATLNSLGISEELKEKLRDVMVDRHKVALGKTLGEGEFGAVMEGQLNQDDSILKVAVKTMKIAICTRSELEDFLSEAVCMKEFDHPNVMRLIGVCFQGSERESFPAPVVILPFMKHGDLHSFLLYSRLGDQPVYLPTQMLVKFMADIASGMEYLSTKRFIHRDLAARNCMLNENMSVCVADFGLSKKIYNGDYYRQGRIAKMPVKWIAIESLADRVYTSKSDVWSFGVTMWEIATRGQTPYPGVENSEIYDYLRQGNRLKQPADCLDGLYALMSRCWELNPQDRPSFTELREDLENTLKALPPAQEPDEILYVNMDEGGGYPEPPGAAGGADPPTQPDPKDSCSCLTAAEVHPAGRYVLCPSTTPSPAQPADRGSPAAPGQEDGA
Output spec: scalar in µM, unitless text.

Here's what some known entries look like.
{"columns": ["STRUCTURE SMILES STRING", "SCALE UNIT", "IC50"],
 "data": [
  ["CNc1ncc2c(-c3ccc(OC)cc3)nn(CC3OCCO3)c2n1", "µM", 1.3],
  ["Cc1cnc(Nc2ccc(N3CCN(C)CC3)c(F)c2)nc1-c1ccc(F)cc1", "µM", 6.1],
  ["COCc1c(C)c(O)c(O)c(O)c1C=O", "µM", 11],
  ["Cc1nc(N)c2c(-c3ccc(NC(=O)c4cn(CC5CCOCC5)cc(-c5ccc(F)cc5)c4=O)cc3)cn(C)c2n1", "µM", 0.0051]
]}

Now consider the entry below.
Inquiry: Look up IC50 for this molecule: S=C(Nc1ccc(Cl)cc1)N1CCN(c2nnc(Cc3ccccc3)c3ccccc23)CC1
Reply text: 3.63
